Tested on: Klebsiella pneumoniae
Experiment: Inhibition of LspA in Klebsiella pneumoniae assessed as inhibition of bacterial growth
Starred links: 1 amine or outer side, 2 acyl side, 3 side chain; linkers in the order of their positions; H or OH if unused. Non-standard residues stand in square brackets, D forms with d. Residues, ends and D or L forms follow the SMILES beside them. *: point of attachment. X6 = C[C@H](CO[C@H](CC1C[C@H]2CC[C@@H](C1)C2)[C@@H](C)C(=O)[*:2])N[*:1]; dAlaψ(CH2NBu)Nle = CCCC[C@@H](C(=O)[*:2])N(CCCC)C[C@@H](C)N[*:1]; X3 = C[C@H](CO[C@H](CC1CC2(CCC2)C1)[C@@H](C)C(=O)[*:2])N[*:1]; X1 = CCCCCC[C@@H](OC[C@@H](C)N[*:1])[C@@H](C)C(=O)[*:2]; Cyclobutyl(trans-3-NH2) = N[C@H]1C[C@H](*)C1; X4 = CCCCCCN(CCN[*:1])[C@@H](C)C(=O)[*:2]; Gly(cHept) = N[C@H](C(=O)O)C1CCCCCC1; NMeL = CN[C@@H](CC(C)C)C(=O)O; Chg = N[C@H](C(=O)O)C1CCCCC1; NMeNva = CCC[C@H](NC)C(=O)O; X2 = NC[C@H]1C[C@H](*)C1; Dap = NC[C@H](N)C(=O)O; X5 = NCCCNCCC*
PARAMETER: MIC (µM)

COMPOUND	PARAMETER	MEASURE_UNIT	INEQUALITY_SIGN	RESULT
CCC[C@H]1C(=O)N[C@@H](C2CCCCCC2)C(=O)N[C@@H](CN)C(=O)N[C@@H](CO[C@H]2C[C@H](N)C2)C(=O)N[C@H](C)CO[C@H](CC2CC3(CCC3)C2)[C@@H](C)C(=O)N1C (cyclo([Dap]S(Cyclobutyl(trans-3-NH2))[X3][NMeNva][Gly(cHept)]))	MIC	µM	=	8.8
CCCCCCN1CCNC(=O)[C@H](CO[C@H]2C[C@H](N)C2)NC(=O)[C@H](CN)NC(=O)[C@H](C2CCCCC2)NC(=O)[C@H](CC(C)C)N(C)C(=O)[C@@H]1C (cyclo([Chg][Dap]S(Cyclobutyl(trans-3-NH2))[X4][NMeL]))	MIC	µM	=	100
CCC[C@H]1C(=O)N[C@@H](C2CCCCCC2)C(=O)N[C@@H](CN)C(=O)N[C@@H](COCCCNCCCN)C(=O)N[C@H](C)CO[C@H](CC2C[C@H]3CC[C@@H](C2)C3)[C@@H](C)C(=O)N1C (stereo partly drawn) (cyclo([Dap]S(X5)[X6][NMeNva][Gly(cHept)]))	MIC	µM	=	1.6
CCC[C@H]1C(=O)N[C@@H](C2CCCCCC2)C(=O)N[C@@H](CN)C(=O)N[C@@H](CO[C@H]2C[C@H](N)C2)C(=O)N[C@H](C)CO[C@H](CC2C[C@H]3CC[C@@H](C2)C3)[C@@H](C)C(=O)N1C (stereo partly drawn) (cyclo([Dap]S(Cyclobutyl(trans-3-NH2))[X6][NMeNva][Gly(cHept)]))	MIC	µM	=	8.8
CCC[C@H]1C(=O)N[C@@H](C2CCCCCC2)C(=O)N[C@@H](CN)C(=O)N[C@@H](COCCCNCCCN)C(=O)N[C@H](C)CO[C@H](CC2CC3(CCC3)C2)[C@@H](C)C(=O)N1C (cyclo([Dap]S(X5)[X3][NMeNva][Gly(cHept)]))	MIC	µM	=	3.1
CCCCCC[C@H]1OC(=O)CNC(=O)[C@H]([C@H](C)O)NC(=O)[C@H](CO)NC(=O)[C@H]([C@H](C)CC)NC(=O)[C@H](CC(C)C)N(C)C(=O)[C@@H]1C	MIC	µM	>	100
CCCC[C@H]1C(=O)N(C)[C@@H](CCC)C(=O)N[C@@H](C2CCCCC2)C(=O)N[C@@H](CN)C(=O)N[C@@H](CO[C@H]2C[C@H](N)C2)C(=O)N[C@H](C)CN1CCCC (cyclo([Chg][Dap]S(Cyclobutyl(trans-3-NH2))[dAlaψ(CH2NBu)Nle][NMeNva]))	MIC	µM	=	25
CCCCCC[C@H]1OC[C@@H](C)NC(=O)[C@H](CO[C@H]2C[C@H](CN)C2)NC(=O)[C@H](CN)NC(=O)[C@H](C2CCCCCC2)NC(=O)[C@H](CCC)N(C)C(=O)[C@@H]1C (cyclo([Dap]S(X2)[X1][NMeNva][Gly(cHept)]))	MIC	µM	=	18

Reference for the values: ChEMBL document CHEMBL4665734
